- Condition Notes: buffer; pH 7.4; 200.0 µM
Each item that follows carries a reported solubility kinetic.

[
  {
    "Smi": "CC1=C(C#N)C(c2ccc(O)cc2)C(C#N)=C(C)N1",
    "Bound Operator": ">",
    "solubility kinetic [µg/mL]": 37.7
  },
  {
    "Smi": "COc1cccc(CNC(=O)CCCSc2ccccc2)c1",
    "Bound Operator": "=",
    "solubility kinetic [µg/mL]": 35
  },
  {
    "Smi": "O=C(OCC(=O)c1ccc[nH]1)c1ccc(F)c(S(=O)(=O)N2CCOCC2)c1",
    "Bound Operator": "=",
    "solubility kinetic [µg/mL]": 7.8
  },
  {
    "Smi": "Cc1ccn2c(NC3CCCC3)c(-c3ccccn3)nc2c1",
    "Bound Operator": "=",
    "solubility kinetic [µg/mL]": 30.6
  },
  {
    "Smi": "S=C(NCC1(c2ccccc2)CCCC1)Nc1ccccc1",
    "Bound Operator": "=",
    "solubility kinetic [µg/mL]": 0.8
  }
]

----------
- Condition Notes: buffer; pH 7.4; 200.0 µM

[
  {
    "Smi": "CCOc1ccc(S(=O)(=O)Nc2nccs2)cc1",
    "solubility kinetic": "> 0.0427 mg/mL"
  },
  {
    "Smi": "Cc1cccnc1NC(=O)CNC(=O)C1CCCCC1",
    "solubility kinetic": "> 0.0413 mg/mL"
  },
  {
    "Smi": "Cl.N=c1n(CCO)c2ccccc2n1CCN1CCCCC1",
    "solubility kinetic": "> 0.0487 mg/mL"
  },
  {
    "Smi": "COc1ccc(NS(=O)(=O)c2csc(C(N)=O)c2)cc1",
    "solubility kinetic": "> 0.0469 mg/mL"
  },
  {
    "Smi": "CSc1nsc(SCC(=O)N2CCCCC2)n1",
    "solubility kinetic": "> 0.0434 mg/mL"
  },
  {
    "Smi": "COc1ccc(/C=C2/SC(=S)NC2=O)cc1OCc1ccccc1",
    "solubility kinetic": "< 0.0008 mg/mL"
  },
  {
    "Smi": "Cn1c(=O)c2c(ncn2CC(=O)Nc2cc(S(=O)(=O)N3CCCCC3)ccc2O)n(C)c1=O",
    "solubility kinetic": "> 0.0715 mg/mL"
  }
]

----------
- Condition Notes: buffer; pH 7.4; 200.0 µM

[
  {
    "Smi": "NC(=O)c1ccc[n+](CC(=O)NCc2ccc(Cl)cc2)c1.[Cl-]",
    "solubility kinetic": "> 51 µg/mL"
  },
  {
    "Smi": "O=C(NCCN1CCOCC1)c1cc([N+](=O)[O-])ccc1Cl",
    "solubility kinetic": "> 47.1 µg/mL"
  },
  {
    "Smi": "Oc1ccccc1-c1nc(NC2CCCC2)c2ccccc2n1",
    "solubility kinetic": "< 0.2 µg/mL"
  }
]

----------
- Condition Notes: buffer; pH 7.4; 200.0 µM
Binary call on solubility kinetic: rule met from 7 µg/mL upward, rule not met beneath that.

[
  {
    "Molecule": "C=CCOc1nc(-c2ccccc2Cl)nc2ccccc12",
    "Label Class": "rule not met"
  },
  {
    "Molecule": "Cc1cc(C)cc(N2CC(C(=O)Nc3cc(C)on3)CC2=O)c1 (stereo unspecified)",
    "Label Class": "rule not met"
  },
  {
    "Molecule": "COc1ccc(C(=O)NC(C)CCc2ccccc2)c(OC)c1 (stereo unspecified)",
    "Label Class": "rule met"
  },
  {
    "Molecule": "Cc1ccc(Cl)c(NC(=O)CN2CCN(C=O)CC2)c1",
    "Label Class": "rule met"
  },
  {
    "Molecule": "COc1cccc(OC)c1C(=O)Nc1nc(-c2ccccc2)cs1",
    "Label Class": "rule not met"
  },
  {
    "Molecule": "N#Cc1ccc(OCC(=O)NCCCn2ccnc2)cc1",
    "Label Class": "rule met"
  }
]
